src = patent US10583127B2

assay: physchem; conditions: 37 °C, aqueous with cosolvent or surfactant or cyclodextrin, kinetic from dmso stock
value type: solubility
Entry format: amount then unit.

In: Using the record for `N#Cc1sc(NC(=O)[C@H]2CC[C@@H](C(=O)[O-])C2)nc1-c1ccccc1.[Na+]` , report its solubility.
Out: 36.3 µM

----------
experiment: in vivo; conditions: male, SD, rat, iv, 1 mg/kg
value type: AUC(0-t)
Entry format: amount then unit.

In: Using the record for `N#Cc1sc(NC(=O)[C@H]2CC[C@@H](C(=O)[O-])C2)nc1-c1ccccc1.[Na+]` , report its AUC(0-t).
Out: 5090 ng·h/mL

----------
assay: Oral bioavailability assay: plasma pharmacokinetics after single IV and PO administration; conditions: male, SD, rat, plasma, iv, 1 mg/kg, AUC last, male SD rats, iv 1 mg/Kg
value type: AUC(0-t) (ng·h/mL)
// return numeric value only (unit: ng·h/mL, not printed)

In: Using the record for `N#Cc1sc(NC(=O)[C@H]2CC[C@@H](C(=O)O)C2)nc1-c1ccccc1` , report its AUC(0-t).
Out: 2200

----------
test: Oral bioavailability assay: plasma pharmacokinetics after single IV and PO administration; conditions: male, SD, rat, plasma, iv, 1 mg/kg, Clearance, male SD rats, iv 1 mg/Kg
value type: clearance (mL/min/kg)
// return numeric value only (unit: mL/min/kg, not printed)

In: Using the record for `N#Cc1sc(NC(=O)[C@H]2CC[C@@H](C(=O)O)C2)nc1-c1ccccc1` , report its clearance.
Out: 6.3

----------
experiment: in vivo; settings: male, SD, rat, po, 5 mg/kg
value type: Cmax (ng/mL)
// return numeric value only (unit: ng/mL, not printed)

In: Using the record for `N#Cc1sc(NC(=O)[C@H]2CC[C@@H](C(=O)[O-])C2)nc1-c1ccccc1.[Na+]` , report its Cmax.
Out: 13200
